Ref: ChEMBL document CHEMBL3885881

organism: Rattus norvegicus; assay: DrugMatrix - Regimen: Daily Repeat; format: toxicity, organism-based, Sprague-Dawley; parameters: regimen Daily Repeat, gender Male, age 6-8 weeks; conditions: in vivo, po, 0 mg/kg, 72 h, tissue Blood, route oral GAVAGE, dose level Control, time 3 day, vehicle .5 % CMC
readout-label: ABSOLUTE MONOCYTE (CELLS/uL)
Give the value in CELLS/uL but do not write CELLS/uL after it.

>  <compound>
COc1cc(/C=C/C(=O)O)ccc1O [FERULATE]

>  <ABSOLUTE MONOCYTE, CELLS/uL>
420.83

$$$$
>  <compound>
CCOc1cc(N)c(Cl)cc1C(=O)NCC1CN(Cc2ccc(F)cc2)CCO1 (configuration not stated) [MOSAPRIDE]

>  <ABSOLUTE MONOCYTE, CELLS/uL>
180.83

$$$$
>  <compound>
CC(C)(C#N)c1cc(Cn2cncn2)cc(C(C)(C)C#N)c1

>  <ABSOLUTE MONOCYTE, CELLS/uL>
85.33

$$$$
>  <compound>
NC(=O)NC(=O)Cc1ccccc1 [PHENACEMIDE]

>  <ABSOLUTE MONOCYTE, CELLS/uL>
193.33

$$$$
>  <compound>
CN(C)CCOC(c1ccccc1)c1ccccc1.Cn1c(=O)c2[nH]c(Cl)nc2n(C)c1=O [DIMENHYDRINATE]

>  <ABSOLUTE MONOCYTE, CELLS/uL>
474

$$$$
>  <compound>
Cc1cc2c(s1)Nc1ccccc1N=C2N1CCN(C)CC1

>  <ABSOLUTE MONOCYTE, CELLS/uL>
138.33

$$$$

Request: Provide only the value of recorded ABSOLUTE MONOCYTE for CC(=O)Nc1ccc2c(c1)Cc1ccccc1-2
Response: 180.83

Request: Provide only the value of recorded ABSOLUTE MONOCYTE for Cl.NC[C@H]1CC[C@H](C(=O)Oc2ccc(CCC(=O)O)cc2)CC1 [CETRAXATE HYDROCHLORIDE]
Response: 420.83

###

species: Rattus norvegicus; experiment: DrugMatrix - Regimen: Daily Repeat; type: toxicity, organism-based, Sprague-Dawley; parameters: regimen Daily Repeat, gender Male, age 6-8 weeks; details: in vivo, po, 0 mg/kg, 120 h, tissue Plasma, route oral GAVAGE, dose level Control, time 5 day, vehicle .5 % CMC
Catalogue of URIC ACID values
Give the value in mg/dL but do not write mg/dL after it.

Record excerpt, results attached:
>  <molecule>
CCOc1cc(N)c(Cl)cc1C(=O)NCC1CN(Cc2ccc(F)cc2)CCO1 (stereo unspecified) [MOSAPRIDE]

>  <URIC ACID [mg/dL]>
1.45

$$$$
>  <molecule>
CC(C)(C#N)c1cc(Cn2cncn2)cc(C(C)(C)C#N)c1

>  <URIC ACID [mg/dL]>
1.98

$$$$
>  <molecule>
Cc1cc2c(s1)Nc1ccccc1N=C2N1CCN(C)CC1

>  <URIC ACID [mg/dL]>
1.68

$$$$
>  <molecule>
NC(=O)CN1CCCC1=O

>  <URIC ACID [mg/dL]>
1.5

$$$$
>  <molecule>
NC(=O)NC(=O)Cc1ccccc1 [PHENACEMIDE]

>  <URIC ACID [mg/dL]>
2.13

$$$$

Request: Provide only the value of recorded URIC ACID for NCC(CC(=O)O)c1ccc(Cl)cc1 (stereo unspecified)
Response: 1.45

Request: Provide only the value of recorded URIC ACID for CC(=O)Nc1ccc2c(c1)Cc1ccccc1-2
Response: 1.45

Request: Provide only the value of recorded URIC ACID for Cl.NC[C@H]1CC[C@H](C(=O)Oc2ccc(CCC(=O)O)cc2)CC1 [CETRAXATE HYDROCHLORIDE]
Response: 1.73

Request: Provide only the value of recorded URIC ACID for O=C(O)CCc1nc(-c2ccccc2)c(-c2ccccc2)o1
Response: 1.67

Request: Provide only the value of recorded URIC ACID for CN(C)CCOC(c1ccccc1)c1ccccc1.Cn1c(=O)c2[nH]c(Cl)nc2n(C)c1=O [DIMENHYDRINATE]
Response: 1.63

Request: Provide only the value of recorded URIC ACID for CCN1CCCC1CNC(=O)c1cc(S(N)(=O)=O)ccc1OC (stereo unspecified) [SULPIRIDE]
Response: 1.67
